Provenance of the data: PubChem BioAssay (NCI)

tested on: UO-31 renal; test: NCI tumour cell line growth inhibition, 48 h; in the data active = GI50 below about 0.43 µM; inactive = the rest
Classes used: t = active, f = inactive

compound	subject of test	assigned category
COc1cccc(-n2ncc3c(N/N=C/c4ccc(F)cc4)ncnc32)c1	UO-31 renal	f
Cc1nnc([S-])o1.[Au+].c1ccc([PH+](c2ccccc2)c2ccccc2)cc1	UO-31 renal	f
O[C@H]1C=C2[C@H](C[C@@H]1O)CN1C[C@H]2c2cc3c(cc21)OCO3	UO-31 renal	f
C=C1C(=O)O[C@H]2[C@H]1CC/C(COC(=O)NCc1ccc(Cn3c(=O)sn(CCI)c3=O)cc1)=C\CC[C@@]1(C)O[C@@H]21	UO-31 renal	f
c1cc(N2CCN(c3ccc(C4=NCCN4)cc3)CC2)ccc1C1=NCCN1	UO-31 renal	f
COC(=O)c1cc2cc(-c3ccc(OC)cc3)cnc2[nH]1	UO-31 renal	f
O=[N+]([O-])c1cc([N+](=O)[O-])c(N2CCCC2)cc1NN=C(c1ccc(O)cc1)c1ccc(O)cc1	UO-31 renal	f
CNCCCNc1c2cc(OC)ccc2nc2cccc([N+](=O)[O-])c12	UO-31 renal	t
CC(C)(C)CC(C)(C)c1ccc(OCCSC(=N)N)cc1	UO-31 renal	f
O=C(C(Br)C(Br)c1ccccc1)C(Br)C(Br)c1ccccc1 (stereo unspecified)	UO-31 renal	t
O=c1ccc(N=Nc2ccccc2)ccc1Cl	UO-31 renal	f
CN(C)c1ccc(O)c2c1CC1CC3C(N(C)C)C(=O)C(C(N)=O)=C(O)C3(O)C(=O)C1=C2O (stereo unspecified)	UO-31 renal	f
CCN(CC)CCn1c(N)c(-c2nc3ccccc3n2C)c2nc(C#N)c(C#N)nc21	UO-31 renal	f
COC(=O)c1c2c(c(C)[n+]([O-])c1C)C(=O)C(NCc1cccc(Cl)c1)=CC2=O	UO-31 renal	f
Oc1ccc(/C=C/c2ccc(O)cc2)cc1	UO-31 renal	f
COc1cc(-c2cc(/C=C3\C(=O)Nc4ccc(Cl)cc43)[nH]n2)cc(OC)c1OC	UO-31 renal	f

====

system: COLO 205 colon; assay: NCI tumour cell line growth inhibition, 48 h
Examples of molecules with documented TGI follow.

molecule	TGI
COC(=O)CCC(C)[C@H]1CCC2C3C(C[C@H](OC(C)=O)[C@@]21C)[C@@]1(C)CCC2(C[C@H]1C[C@H]3OC(C)=O)OOC1(CCCCCCC1)OO2 (stereo not given in full)	> 100 µM
CN1C(c2ccccc2)CC(=NOCc2ccccc2)CC1c1ccccc1 (stereo not given)	88.6 µM
CNc1ccc(S(=O)Nc2ccc(OC)cc2)cc1 (stereo not given)	91.4 µM
O=C1c2ccccc2C(=O)N1CCn1nc(-c2ccccc2)cc(-c2ccccc2)c1=O	> 100 µM
C=CCOC1=CC(=O)c2ccccc2C1=O	3.29 µM

====

test system: KM12 colon; experiment: NCI tumour cell line growth inhibition, 48 h
Attribute: TGI

compound	unit tag	operator	TGI
CC(=O)OCC1OC(OC2CCCC[Si](c3ccccc3)(c3ccccc3)O2)C(OC(C)=O)C(OC(C)=O)C1OC(C)=O (stereo not given)	µM	>	100
COC(=O)Cc1ccc(Oc2nc3ccccc3nc2-c2cccs2)cc1	µM	>	100
CN(C)c1ccc(O)c2c1CC1CC3C(N(C)C)C(=O)C(C(N)=O)=C(O)C3(O)C(=O)C1=C2O (stereo not given)	µM	=	32.2
CCCCC/C=C1\CC(CO)(COC(=O)CC(C(C)C)C(C)C)OC1=O (stereo not given)	µM	=	28.3
CC(C)(C)C1=NC(=S)SC2=NC(=O)C3(NN21)c1ccccc1-c1ccccc13	µM	>	10

====

Overview of reported TGI across a group of compounds:
tested on: 786-0 renal; test: NCI tumour cell line growth inhibition, 48 h

compound	TGI
CCCCCCCCCCCCC/C=C/[C@H]1[C@@H](C(=O)OC)N1S(=O)c1ccc(C)cc1 (stereo not given in full)	> 100 µM
CCOC(=O)NC(=O)c1cn(-c2ccc(CCOC(=O)NCCCCCCNC(=O)OCCc3ccc(-n4c(=O)[nH]cc(C(=O)NC(=O)OCC)c4=O)cc3)cc2)c(=O)[nH]c1=O	> 100 µM
O[C@H]1C=C2[C@H](C[C@@H]1O)CN1C[C@H]2c2cc3c(cc21)OCO3	> 100 µM
Cc1cc([N+](=O)[O-])c(C)c2c1[nH]c1ccc(O)cc12	> 100 µM
O=C1c2[nH]cc(CN3CCN(CCO)CC3)c2C(=O)c2c1c(O)c1ccccc1c2O	11 µM
C/C=C(/C(=C/C)c1ccc(O)cc1)c1ccc(O)cc1	27 µM
CC(C)(Oc1ccc(Cl)cc1)C(=O)NC1C2CC3CC1CC(NS(C)(=O)=O)(C3)C2 (stereo not given)	> 100 µM
Cc1ccc(-c2c(C#N)c(N)[nH]c(=S)c2C#N)cc1	77.5 µM
COC(=O)C(C)(Cc1ccc2c(c1)nnn2C(C)=O)NC(C)=O (stereo not given)	> 100 µM
c1ccc(C(c2ccccc2)c2ccncc2)cc1	> 100 µM

====

tested on: MOLT-4 leukemia; assay: NCI tumour cell line growth inhibition, 48 h
reported endpoint: TGI

molecule	subject of test	result
Cc1ccc(NC(=S)C#N)cc1Cl	MOLT-4 leukemia	> 100 µM
CC(C)(C)C1=NC(=S)SC2=NC(=O)C3(NN21)c1ccccc1-c1ccccc13	MOLT-4 leukemia	> 10 µM
COc1ccc(NS(=O)c2ccc(Cl)cc2)cc1 (configuration not stated)	MOLT-4 leukemia	> 100 µM
CC12OC3(O)C4C5CC(C6C5C3C61)C42 (configuration not stated)	MOLT-4 leukemia	> 100 µM
Cc1ccc(NC(=O)CC/C(CC(=O)C(C)(C)C)=N/Nc2nnc(C)n2N)cc1C	MOLT-4 leukemia	> 100 µM
O=[N+]([O-])c1ccc2nc3n(c2c1)C(c1c(F)cccc1F)SC3 (configuration not stated)	MOLT-4 leukemia	> 100 µM
O=C1c2ccccc2C(=O)N1CCn1nc(-c2ccccc2)cc(-c2ccccc2)c1=O	MOLT-4 leukemia	> 100 µM
Cc1noc(NS(=O)(=O)c2ccc(NC(=O)c3ccc4nc5ccccc5c(Nc5ccc(S(=O)(=O)Nc6onc(C)c6C)cc5)c4c3)cc2)c1C	MOLT-4 leukemia	> 100 µM
Clc1cccc(Cl)c1C(Nc1nncs1)Nc1nncs1	MOLT-4 leukemia	> 100 µM
O=C1c2cc3c(cc2[C@@H]2NC4CCCC14O2)OCO3 (some centres not stated)	MOLT-4 leukemia	> 100 µM
COC(=O)C(C(=O)C(=O)Nc1ccc(Br)cc1)c1nc2ccc(Cl)cc2[nH]c1=O (configuration not stated)	MOLT-4 leukemia	> 100 µM
O[C@H]1C=C2[C@H](C[C@@H]1O)CN1C[C@H]2c2cc3c(cc21)OCO3	MOLT-4 leukemia	> 100 µM
CN(C(=O)c1cccs1)C(=S)N1CCN(c2ccccn2)CC1	MOLT-4 leukemia	> 100 µM
CCOC(=O)c1c2c(n(Cc3ccc(Cl)cc3Cl)c1C)-c1nc(Cc3ccccc3)[nH]c1C(=O)C2=O	MOLT-4 leukemia	4.87 µM
Cc1cccc(NC(=S)Nc2ccc(Cl)cc2)n1	MOLT-4 leukemia	> 100 µM
CCC(CC)COC(=O)[C@H](C)N[P@](=O)(OC[C@H]1O[C@@](C#N)(c2ccc3c(N)ncnn23)[C@H](O)[C@@H]1O)Oc1ccccc1	MOLT-4 leukemia	31.2 µM
COC(=O)C(Cc1nc2ccc(Cl)cc2[nH]c1=O)/C(=N/O)C(=O)Nc1cccc(Cl)c1C (configuration not stated)	MOLT-4 leukemia	> 100 µM
[N-]=[N+]=NC1=CC(=O)c2cccc3cccc1c23	MOLT-4 leukemia	> 100 µM
CN1C(c2ccccc2)CC(=NOCc2ccccc2)CC1c1ccccc1 (configuration not stated)	MOLT-4 leukemia	71.2 µM
O=c1[nH]c2cc(Cl)ccc2nc1/C(=N/Nc1ccccc1)C(O)c1ccco1 (configuration not stated)	MOLT-4 leukemia	> 100 µM
CN(CCN(C)CCN(C)C(=O)Cc1ccc(Cl)c(Cl)c1)CCN1CCCC1	MOLT-4 leukemia	29.1 µM
Brc1sc(Br)c2c1[C@H](Br)C[C@@H]2Br	MOLT-4 leukemia	95.5 µM

====

MDA-MB-435 data, read-out GI50
reported endpoint: GI50

compound	result
CCCCSSC(=S)N(CC)CC	33.9 µM
CCOC(=O)c1c2c(n(Cc3ccc(Cl)cc3Cl)c1C)-c1nc(Cc3ccccc3)[nH]c1C(=O)C2=O	1.99 µM
C=C1C(=O)O[C@H]2[C@H]1CC/C(COC(=O)NCc1[nH]nc3ccccc13)=C\CC[C@@]1(C)O[C@@H]21	1.64 µM
O=C(NC1CCCCC1)NS(=O)(=O)c1ccc(-n2nc3c(c2-c2cccs2)Cc2ccccc2-3)cc1	32.5 µM
CN1CCN(Cc2ccc(NC(=O)c3nc4ccc5[nH]ncc5c4c4c3CCCC4)cc2C(F)(F)F)CC1	0.841 µM
Cc1ccc2c(NCCCN(C)C)c3c(C)nn(C)c3nc2c1	3.28 µM
Nc1nc2cc(-c3ccc4ncc(C(=O)N5CCOCC5)n4c3)ccc2o1	5.71 µM
O=NNc1ccc(S(=O)c2ccccc2)cn1 (stereo not given)	> 100 µM
CCCCN(CCCC)CC(O)c1ccc(OCc2ccccc2)c2ccccc12 (stereo not given)	3.17 µM
CN(CCO)C1CCN(c2ccc(Nc3ncc4c5ccnc(F)c5n(C5CCCC5)c4n3)nc2)CC1	5.84 µM
